- Test system: CD2F1 mice, L1210 leukemia ip, survival T/C
- experiment notes: NCI In Vivo Anticancer Drug Screen. Data for tumor model L1210 Leukemia (intraperitoneal) in CD2F1 (CDF1) mice
- condition description: endpoint: mean survival time; dose: 100.0 mg/kg/injection; schedule: Q04DX003 (ip); vehicle: saline; higher = longer survival
Toxic doses and inconclusive results are not listed.
reported endpoint: T/C

Example entries begin here.
- compound: "C[N+]12CCN(CC1)CC2.[Cl][Pt]([Cl])[Cl]"
  T/C: "113 % of control"
- compound: "O=C(O)C(O)C(=O)O.[NH2-].[NH2-].[Pt+2]"
  T/C: "120 % of control"
- compound: "Nc1ccccc1O"
  T/C: "100 % of control"
- compound: "CCOC1OC(C(O)CO)C(O)C(O)C1O (stereo unspecified)"
  T/C: "101 % of control"
- compound: "O=C(O)CC(CC(=O)O)C(=O)O"
  T/C: "101 % of control"

Moving on to the next compound.
T/C for C1CC2CNC1CN2 ?
96 % of control

* * *

- Test system: CD2F1 mice, L1210 leukemia ip, survival T/C
- experiment notes: NCI In Vivo Anticancer Drug Screen. Data for tumor model L1210 Leukemia (intraperitoneal) in CD2F1 (CDF1) mice
- condition description: endpoint: mean survival time; dose: 200.0 mg/kg/injection; schedule: Q01DX009 (ip); vehicle: saline with Tween-80; higher = longer survival
Inconclusive results and toxic doses are left out.
reported endpoint: T/C

- compound: "CCC(C)C(C(=O)OCCN(C)C)c1ccccc1 (stereo not given)"
  T/C: "103 % of control"
- compound: "N=C(N)SCc1cccc2c(=O)cc(-c3ccccc3)oc12"
  T/C: "104 % of control"
- compound: "CC(C)(C)Sc1cccnc1 (tested in a mixture with another compound)"
  T/C: "93 % of control"

T/C for CSC(=S)N(C)/N=C/c1ccccn1 ?
96 % of control

* * *

// reported T/C for each item listed
- Tested on: CD2F1 mice, L1210 leukemia ip, survival T/C
- experiment notes: NCI In Vivo Anticancer Drug Screen. Data for tumor model L1210 Leukemia (intraperitoneal) in CD2F1 (CDF1) mice
- condition description: endpoint: mean survival time; dose: 25.0 mg/kg/injection; schedule: Q04DX003 (ip); vehicle: saline with Tween-80; higher = longer survival
- Description: The antitumor activity of compounds was measured in mice bearing transplantable tumors. Survival or tumor size were measured and the results are expressed as the measurement made in the treated group (T) divided by the measurement made in the vehicle treated control group (C). The tumor model used in this assay is L1210 Leukemia (intraperitoneal) in CD2F1 (CDF1) mice
Inconclusive results and toxic doses are left out.

- compound: "COc1ccccc1[As](=O)(O)CC(O)COc1ccccc1 (stereo not drawn)"
  value reported: "113 % of control"
- compound: "Cc1ccccc1Nc1c2ccccc2nc2ccccc12"
  value reported: "104 % of control"
- compound: "CC(=O)c1ccc[n+](CCc2c[nH]c3ccccc23)c1"
  value reported: "104 % of control"
- compound: "NC(N)=N/N=C/c1ccc(Cl)c(Cl)c1"
  value reported: "97 % of control"

T/C for Cc1ccnc(N)c1.[Cl-].[Cl-].[Cl-].[Cl-].[Pt+2] ?
106 % of control

* * *

// reported T/C for each item listed
- Tested on: CD2F1 mice, L1210 leukemia ip, survival T/C
- experiment notes: NCI In Vivo Anticancer Drug Screen. Data for tumor model L1210 Leukemia (intraperitoneal) in CD2F1 (CDF1) mice
- condition description: endpoint: mean survival time; dose: 50.0 mg/kg/injection; schedule: Q04DX003 (ip); vehicle: saline with Tween-80; higher = longer survival
Toxic doses and inconclusive results are not listed.

T/C for O=C(/C=C(\C(=O)c1ccccc1)c1ccccc1)c1ccccc1 ?
92 % of control

Values compiled from PubChem BioAssay AID256.
